Origin of measurements: PubChem BioAssay (NCI)

Tested on: HOP-92 NSCLC
TEST DESCRIPTION: NCI-60 one-dose screen, 48 h (100 = growth as untreated, 0 = no growth, -100 = all killed)
RUN PARAMETERS: 10 µM unless noted
About 83,000 compounds went through this panel and 20% of them were active in at least one assay; those are over-represented in the sample as a whole.
VALUE KIND: growth (%)

{"COMPOUND": "CS(=O)(=O)c1nsc(N)n1", "OUTPUT UNIT": "%", "READOUT VALUE": 111}
{"COMPOUND": "O=[N+]([O-])c1ccc(NC(c2ccccc2)c2ccc3cccnc3c2O)cc1 (stereo unspecified)", "OUTPUT UNIT": "%", "READOUT VALUE": 62.5}
{"COMPOUND": "Nc1c(S(=O)(=O)O)cc(Br)c2c1C(=O)c1ccccc1C2=O", "OUTPUT UNIT": "%", "READOUT VALUE": 73.4}
{"COMPOUND": "COC(=O)c1nc(N)nc(C(=O)OC)c1C(=O)c1cccc2ccccc12", "OUTPUT UNIT": "%", "READOUT VALUE": 85.5}
{"COMPOUND": "O=C(O)Cc1cc(=O)[nH]n(-c2ccccc2)c1=O", "OUTPUT UNIT": "%", "READOUT VALUE": 98}
{"COMPOUND": "COc1ccc(C(=O)C(O)c2ccc(OC)cc2)cc1 (stereo unspecified)", "OUTPUT UNIT": "%", "READOUT VALUE": 96.2}

---

Test system: BT-549 breast
TEST DESCRIPTION: NCI-60 one-dose screen, 48 h
RUN PARAMETERS: 10 µM unless noted
About 83,000 compounds went through this panel and 20% of them were active in at least one assay; those are over-represented in the sample as a whole. The source made the active and inactive calls. The calls were made as follows: active = growth percent below 10; inactive = the rest.
Outcomes: Yes = active, No = inactive

{"MOLECULE": "OC(CC(c1ccccc1)c1cccc2ccccc12)(c1ccccc1)c1ccccc1 (stereo unspecified)", "TESTED ON": "BT-549 breast", "CATEGORY": "No"}
{"MOLECULE": "CCc1ccccc1-n1[nH]c(C)c(C=N)c1=O", "TESTED ON": "BT-549 breast", "CATEGORY": "No"}
{"MOLECULE": "CC1CCC(=O)N1c1ccc(N)cc1 (stereo unspecified)", "TESTED ON": "BT-549 breast", "CATEGORY": "No"}
{"MOLECULE": "O=C(O)C1CSCN1 (stereo unspecified)", "TESTED ON": "BT-549 breast", "CATEGORY": "No"}
{"MOLECULE": "Nc1ccccc1SC1CC(=O)N(c2ccc(I)cc2)C1=O (stereo unspecified)", "TESTED ON": "BT-549 breast", "CATEGORY": "No"}
{"MOLECULE": "O=C1Cc2ccccc2C(=O)N1", "TESTED ON": "BT-549 breast", "CATEGORY": "No"}
{"MOLECULE": "CCOC(=N)c1ccc(C(=N)OCC)cc1", "TESTED ON": "BT-549 breast", "CATEGORY": "No"}
{"MOLECULE": "COCCNC(C)=O", "TESTED ON": "BT-549 breast", "CATEGORY": "No"}
{"MOLECULE": "CCC(C)NC(=O)c1ccccc1C (stereo unspecified)", "TESTED ON": "BT-549 breast", "CATEGORY": "No"}
{"MOLECULE": "Cc1cc(Cl)nc(Nc2ccccc2)n1", "TESTED ON": "BT-549 breast", "CATEGORY": "No"}
{"MOLECULE": "COC(=O)C(Cc1cn(C(C)=O)c2ccccc12)P(=O)(OC)OC (stereo unspecified)", "TESTED ON": "BT-549 breast", "CATEGORY": "No"}
{"MOLECULE": "O=C1C2=C(Nc3cc(Cl)ccc3N2)OC1c1c[nH]c2ccc(COc3ccccc3)cc12 (stereo unspecified)", "TESTED ON": "BT-549 breast", "CATEGORY": "No"}
{"MOLECULE": "CCOC(=O)c1ccc(C(=N)N)cc1", "TESTED ON": "BT-549 breast", "CATEGORY": "No"}
{"MOLECULE": "CCNC1=CC(=O)c2ncccc2C1=O", "TESTED ON": "BT-549 breast", "CATEGORY": "Yes"}
{"MOLECULE": "Clc1ccc2c(c1)N(C1CCCN(Cc3ccccc3)C1)c1ccccc1S2 (stereo unspecified)", "TESTED ON": "BT-549 breast", "CATEGORY": "No"}
{"MOLECULE": "CCOP(C)(=O)/C(Cc1ccc(OC)c(OC)c1)=N\\O (stereo unspecified)", "TESTED ON": "BT-549 breast", "CATEGORY": "No"}
{"MOLECULE": "Cc1c(Cl)cc(Cl)c(N)c1Cl", "TESTED ON": "BT-549 breast", "CATEGORY": "No"}
{"MOLECULE": "CC(C)(C)C1CCC(=NO)CC1 (stereo unspecified)", "TESTED ON": "BT-549 breast", "CATEGORY": "No"}
{"MOLECULE": "CC1CC(O)CC(C)(C)C1.CC1CC(O)CC(C)(C)C1.CC1CC(O)CC(C)(C)C1.CC1CC(O)CC(C)(C)C1.[Ti] (stereo unspecified)", "TESTED ON": "BT-549 breast", "CATEGORY": "No"}
{"MOLECULE": "COC(=O)c1nc(=S)[nH]c(C(=O)OC)c1C(=O)c1ccccc1", "TESTED ON": "BT-549 breast", "CATEGORY": "No"}
{"MOLECULE": "O=C(O)C#Cc1ccc(Cl)cc1", "TESTED ON": "BT-549 breast", "CATEGORY": "No"}
{"MOLECULE": "S=c1nn[nH]n1C1CCCCC1", "TESTED ON": "BT-549 breast", "CATEGORY": "No"}
{"MOLECULE": "CCC(=O)Oc1ccc(OCc2ccccc2)cc1", "TESTED ON": "BT-549 breast", "CATEGORY": "No"}
{"MOLECULE": "Nc1ccc2ccc(NS(=O)(=O)N3CCCCC3)cc2c1", "TESTED ON": "BT-549 breast", "CATEGORY": "No"}
{"MOLECULE": "Cc1ccc(C(=O)c2ccc(C)cc2)cc1", "TESTED ON": "BT-549 breast", "CATEGORY": "No"}
{"MOLECULE": "C#CCOC(=O)C(N)CS (stereo unspecified)", "TESTED ON": "BT-549 breast", "CATEGORY": "No"}
{"MOLECULE": "COc1ccc(CCN=Cc2ccc(Cl)cc2)cc1OC", "TESTED ON": "BT-549 breast", "CATEGORY": "No"}
{"MOLECULE": "COc1ccc(CCNC(=S)NN)cc1OC", "TESTED ON": "BT-549 breast", "CATEGORY": "No"}
{"MOLECULE": "Cc1ccc(S(=O)(=O)n2ccnc2)cc1", "TESTED ON": "BT-549 breast", "CATEGORY": "No"}
{"MOLECULE": "COc1cc2oc3cc(=O)cc4oc(-c5ccccc5)cc(c2c2c1CCC(c1ccccc1)O2)c43 (stereo unspecified)", "TESTED ON": "BT-549 breast", "CATEGORY": "No"}
{"MOLECULE": "CN(C=O)c1ccccc1", "TESTED ON": "BT-549 breast", "CATEGORY": "No"}
{"MOLECULE": "O=S(=O)(O)c1ccc2cc(O)ccc2c1", "TESTED ON": "BT-549 breast", "CATEGORY": "No"}
{"MOLECULE": "CC(O)CCNC(c1ccccc1)C(O)c1ccccc1 (stereo unspecified)", "TESTED ON": "BT-549 breast", "CATEGORY": "No"}
{"MOLECULE": "CCOP(=O)(OCC)/C(C#N)=C/c1c(C)[nH]c2ccccc12", "TESTED ON": "BT-549 breast", "CATEGORY": "No"}
{"MOLECULE": "NC(=O)Cc1nc(O)cc(=O)[nH]1", "TESTED ON": "BT-549 breast", "CATEGORY": "No"}
{"MOLECULE": "O=C(c1ccncc1)c1c(Cc2ccccc2)ccc2ccccc12", "TESTED ON": "BT-549 breast", "CATEGORY": "Yes"}
